Assay: Inhibition of BMI1 promoter in HEK293T cells incubated for 24 hrs by luciferase reporter gene assay
Assay type: cell-based
Settings: Homo sapiens, HEK-293T
pIC50: −log10 of the molar value.
Catalogue of compounds with associated pIC50
VALUE TYPE: pIC50

smiles_code=CC[C@@H]1[C@@H](C)O[C@@](O)([C@@H](C)[C@H](O)[C@H](C)[C@H]2OC(=O)/C=C/C=C/[C@H](C)[C@@H]([C@@H](C)[C@@H](O)[C@H](C)[C@@]3(O)C[C@@H](O[C@H]4C[C@H](O)[C@H](O)[C@H](C)O4)[C@H](CC)[C@@H](C)O3)OC(=O)/C(C)=C/C=C/[C@@H]2C)C[C@H]1O[C@H]1C[C@H](O)[C@H](O)[C@H](C)O1 value_type=pIC50 assay_value=6.35
smiles_code=O=C1CCC(=O)N(O)CCCCCNC(=O)CCC(=O)N(O)CCCCCNC(=O)CCC(=O)N(O)CCCCCN1 value_type=pIC50 assay_value=4.66
smiles_code=CC[C@@H]1[C@@H](C)O[C@@](O)([C@@H](C)[C@H](O)[C@H](C)[C@H]2OC(=O)/C=C/C=C/[C@H](C)[C@@H]([C@@H](C)[C@@H](O)[C@H](C)[C@@]3(O)C[C@@H](O[C@H]4C[C@H](O)[C@H](O)[C@H](C)O4)[C@H](CC)[C@@H](C)O3)OC(=O)/C=C/C=C/[C@@H]2C)C[C@H]1O[C@H]1C[C@H](O)[C@H](O)[C@H](C)O1 value_type=pIC50 assay_value=7.52
